// reported EC50 per item
Test system: 3D7 strain of Plasmodium falciparum
Assay: Potency in the 3D7 strain of Plasmodium falciparum (EC50)
Assay type: cell-based
Conditions: Plasmodium falciparum, 3D7, read-out: 3D7 Mean EC50 of the TBN (μM)

molecule	measured target	qualifying sign	EC50 / µM
O=C(Nc1ccc(F)c(F)c1)c1c2c(nc3c1CN(Cc1ccccc1)CC3)CCCC2	3D7 strain of Plasmodium falciparum	>	3.49
CC(c1ncccn1)N1CCc2nc3c(c(C(=O)Nc4ccc(F)c(F)c4)c2C1)CCCC3 (stereo not shown)	3D7 strain of Plasmodium falciparum	=	0.453
CC(c1ccccn1)N1CCc2nc3c(c(C(=O)Nc4ccc(F)c(F)c4)c2C1)CCCC3 (stereo not shown)	3D7 strain of Plasmodium falciparum	=	0.0603
CCN1CCc2nc3c(c(C(=O)Nc4ccc(F)c(F)c4)c2C1)CCCC3	3D7 strain of Plasmodium falciparum	>	12.2

This collection of values is drawn from patent US12370183B2.
